- testDescription: NCI Yeast Anticancer Drug Screen. Data for the bub3 strain (AID 167)
- testSettings: S. cerevisiae bub3 mutant strain, at 50.0 µM, active compounds read high
Compounds without any hit were thinned out: in the full panel of roughly 79,000, 15% have a hit.
observationType: growth inhibition (%)
Your answer should be a plain number; it is taken to be in %.

Using the record for COc1ccc2cc(C(=O)c3ccccc3)c(=O)oc2c1 , report its growth inhibition. 12.2

Entry to check: O=C(O)[C@@H]1[C@H](C(=O)O)[C@H](C(=O)O)C[C@@H]1C(=O)O -69

Entry to check: CSC1=C(C#N)C(=O)N(c2ccc(C)cc2)C(=O)C1C#N (stereo unspecified) 5.5

Entry to check: Cc1ccc(-n2cnc3c(Cl)ncnc32)cc1[N+](=O)[O-] 1.65

Entry to check: O=C(CC1=NC2NN(c3ccccc3)C(=O)C2=C1CC(=O)c1ccc([N+](=O)[O-])cc1)c1ccc([N+](=O)[O-])cc1 (stereo unspecified) 19.9

Entry to check: Cc1ccc(OC(=O)NC(C)(C)C)cc1 11.8

Entry to check: Cc1cccc(N=C2NC(=O)C(CC(=O)Nc3ccccc3Cl)S2)c1 (stereo unspecified) 0.95

Entry to check: CS(=O)(=O)OC1C(OCc2ccccc2)OC(CO)C(O)C1O (stereo unspecified) -1.6

Entry to check: CC1CC(=O)NC(=O)C1 6.3

Entry to check: COc1ccc(NC2C(=O)C3(C)CCC2C3(C)C)cc1 (stereo unspecified) 12.2

Entry to check: CCCC(CCC)=C1C(=O)N=C(N)NC1=O -7.35

Entry to check: c1cc2c([nH]1)CCCC2 23.6

Entry to check: CCOC(=O)Cn1c(C(F)(F)F)nc2nc(Cl)c(Cl)nc21 -19.9

Entry to check: OCC(CO)=C1c2ccccc2-c2ccccc21 -1.5

Entry to check: Cc1cc2c(cc1Cl)SC(NNC(=O)c1ccncc1)=NS2(=O)=O -63.4

Entry to check: N#CCC(CC#N)C(c1cccc2ccccc12)c1cccc2ccccc12 18.7

Entry to check: C(#Cc1ccccc1)/C=C/C(=C\c1ccccc1)c1ccccc1 20.8

Entry to check: O=C(c1ccccc1)c1cc(Cl)ccc1N1C(=O)C=CC1=O 99

Entry to check: O=C1NCC/C1=C\c1ccccc1 -6.65

Entry to check: CCOC(=O)c1cc2cc(Br)ccc2[nH]1 -2.7

Entry to check: CC(=O)OC1CC2C(C)(CCC3C2(C)CCC2(C)C4CC(C)(C)CCC4(C)CCC32C)C1C (stereo unspecified) -3.2

Entry to check: OCCc1cc2ccccc2c2ccccc12 -15.9

Entry to check: Cc1nnsc1-c1nc2ccccc2[nH]1 32.5

Entry to check: COC1OC(CO)C(OC(=O)Nc2ccccc2)C(OC(=O)Nc2ccccc2)C1O (stereo unspecified) 2.7

Entry to check: CCCCCCCCCCNCC(=O)O -1.6

Entry to check: O=C(/C=C/c1ccc(Cl)cc1)c1ccncc1 16.1

---

- testDescription: NCI Yeast Anticancer Drug Screen. Data for the mec2-1 strain (AID 157)
- testSettings: S. cerevisiae mec2-1 strain, at 50.0 µM, active compounds read high
- Description: Growth inhibition of yeast strains with defined genetic alterations is measured as a screen for potential anti-cancer activity. Selected strains with alterations in DNA damage repair or cell cycle control were exposed to compounds and growth inhibition was measured relative to vehicle treated controls. The strain used in this assay is mec2-1
The panel holds about 79,000 compounds, 15% with a hit somewhere; the sample as a whole holds those more often.
// label = class 1 if growth inhibition is not less than -10%, otherwise class 0

hey, is growth inhibition for this one >= -10%? C=C(C)[C@@H]1CC=C(CO)CC1 class 1

Entry to check: C[C@@H]1CC[C@@H](C)[C@](C)(CCc2ccoc2)C/C=C\C=C/1C(=O)O class 1

Entry to check: CC(=O)OCC(C)Cc1ccc(C(C)(C)C)cc1 (stereo unspecified) class 1

Entry to check: COC(=O)c1ccccc1NC(=O)c1cc(C(=O)O)c(C(=O)Nc2ccccc2C(=O)OC)cc1C(=O)O class 1

Entry to check: CC(=O)CC(=O)NCCCN1CCCCCC1 class 0

Entry to check: Cc1ccc(S(=O)(=O)NCc2cccc([N+](=O)[O-])c2)cc1 class 0

Entry to check: CSCCCO class 0

Entry to check: Cc1cc(C)cc(O)c1 class 0

Entry to check: COc1cc2[nH]c3c(c2cc1OC)CCN[C@@]31CC[C@@]2(CC3c4c(cc(OC)c(O)c42)CCN3C)C[C@@H]1OC (stereo partly specified) class 0

Entry to check: O=CN(Cc1cnccn1)Cc1cnccn1 class 1

Entry to check: c1ccc(Nc2cc(Nc3ccccc3)ncn2)cc1 class 0

Entry to check: O=S1(=O)CC(c2ccccc2)(c2ccccc2)Nc2ccccc21 class 0

Entry to check: COC(=O)c1ccc(C(=O)O)cc1 class 1

Entry to check: NC(CSSCC(N)Cc1ccccc1)Cc1ccccc1 (stereo unspecified) class 1

Entry to check: CCOC1([N+](=O)[O-])c2ccccc2-c2nc3ccccc3cc21 (stereo unspecified) class 1

Entry to check: COC(=O)C(/C(=N/NC(=O)c1ccncc1)C(=O)Nc1ccccc1OC)c1nc2ccc(Cl)cc2[nH]c1=O (stereo unspecified) class 1

Entry to check: OC(c1ccccc1)(c1ccccc1)C1CC1 class 1

Entry to check: CCN(CC)CCOC(C)=O class 0

Entry to check: S=C(Nc1ccccc1)Nc1ccccn1 class 0

Entry to check: COC(=O)CCC(N)C(=O)O (stereo unspecified) class 0

Entry to check: COc1ccc(C(C#N)C(=O)CCC(=O)C(C#N)c2ccc(OC)c(OC)c2)cc1OC (stereo unspecified) class 1

Entry to check: CC1OC(c2c(Cl)cccc2[N+](=O)[O-])OC1C (stereo unspecified) class 1

Entry to check: O=C(Nc1cc(Cl)c(I)cc1Cl)C(F)(F)F class 1

Entry to check: O=[N+]([O-])c1cccnc1Oc1cccc(C(F)(F)F)c1 class 1

Entry to check: CCCCCNc1ccnc(=O)[nH]1 class 1

Entry to check: COc1cccc(Cc2cncc3c(O)c(OC)ccc23)c1O class 1

---

- testDescription: NCI Yeast Anticancer Drug Screen. Data for the rad50 strain (AID 155);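 further: 0% = growth of vehicle-only cultures of the same strain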
- testSettings: S. cerevisiae rad50 strain growth inhibition; at 50.0 µM; active compounds read high
The panel holds about 79,000 compounds, 15% with a hit somewhere; the sample as a whole holds those more often.
Task for the reader: assign each of the following molecules its reported growth inhibition.
Your answer should be a plain number; it is taken to be in %.

Using the record for O=C(NNC(=O)c1ccc(Cl)c(Cl)c1)c1ccc(Cl)c(Cl)c1 , report its growth inhibition. -37.9

Entry to check: CCOC(=O)c1cnc(SC)nc1Nc1cccc(C)c1 -13.4

Entry to check: COc1ccc(NC(=O)CC(=O)N/N=C/c2ccc(N(CCC#N)S(=O)(=O)c3ccccc3)cc2)cc1 -35.5

Entry to check: CC(=Nc1ccc(C)cc1)NNc1nc2ccccc2s1 15.1

Entry to check: CCn1c(C)nc([N+](=O)[O-])c1Sc1ncn[nH]1 10.2

Entry to check: CCN(CC)CCC(CN(C)C)C(C)O (configuration not stated) -4.05

Entry to check: O=C1c2ccccc2-c2cc(F)ccc21 18.3

Entry to check: CC(=O)Nc1ccc(N=C2c3ccccc3-c3ccc([N+](=O)[O-])cc32)cc1 -6.1

Entry to check: Cc1cccc(C)c1NC(=O)CNc1ncccn1 -14.3

Entry to check: O=C(CCCl)NNC1=NCCCN1 2.5

Entry to check: CC1=C(c2ccccc2)C(c2ccccc2)c2ccccc21 (configuration not stated) 17.3

Entry to check: Brc1cccc2ccccc12 23.6

---

- testDescription: NCI Yeast Anticancer Drug Screen. Data for the mlh1 rad18 strain (AID 175)
- testSettings: S. cerevisiae mlh1 rad18 strain growth inhibition; at 50.0 µM; active compounds read high
- Method: Growth inhibition of yeast strains with defined genetic alterations is measured as a screen for potential anti-cancer activity. Selected strains with alterations in DNA damage repair or cell cycle control were exposed to compounds and growth inhibition was measured relative to vehicle treated controls. The strain used in this assay is mlh1 rad18
About 79,000 compounds went through this panel and 15% of them were active in at least one assay; those are over-represented in the sample as a whole.
Task for the reader: assign each of the following compounds its reported growth inhibition.
Your answer should be a plain number; it is taken to be in %.

Using the record for COc1ccc(-c2cc(O)cc(C)c2N)c(OC)c1OC , report its growth inhibition. 17.4

Entry to check: CC(C)CCOC(=O)NC(Nc1ccc(F)cc1)(C(F)(F)F)C(F)(F)F -25.9

Entry to check: Cc1ccc(SCc2cn(C3OC(CO)C(O)C3O)c(=O)[nH]c2=O)cc1 (configuration not stated) 12.2

Entry to check: COC(=O)C1(CC(=O)CC(=O)CC2(C(=O)OC)NC(=S)NC(=O)C2C#N)NC(=S)NC(=O)C1C#N (configuration not stated) 13.8

Entry to check: O=C(Nc1ccc2ccccc2c1)OC1CCS(=O)(=O)C1 (configuration not stated) -8.25

Entry to check: CC(O)C(NC(=O)c1cnc2ccccc2n1)C(=O)O (configuration not stated) -11.8

Entry to check: CCCCCCCCC(O)C(O)CCCCCCCC(=O)OC (configuration not stated) -22.9

Entry to check: O=c1cc(Nc2ccc(Cl)cc2)[nH]c(=O)[nH]1 -7.65

Entry to check: Cc1cccnc1C(=O)O.[Cu+2] -7.4

Entry to check: CCCCCN(CCCCC)C(=S)[S-].CCCCCN(CCCCC)C(=S)[S-].[Zn] 60.8

Entry to check: CC1CN=C(N(Cc2ccc(F)cc2)C(=O)Nc2ccc(Cl)cc2)S1 (configuration not stated) -34.3

Entry to check: CC(=O)OC1c2ccccc2C(=O)C1(OC(C)=O)c1ccccc1 (configuration not stated) 43.9

Entry to check: CC(=O)OCC1OC(c2ccccc2)C/C(=N/O)C1OC(C)=O (configuration not stated) 97.7

Entry to check: O=C(Cc1csc(N=Nc2c(O)[nH]c3ccccc23)n1)Nc1ccccc1 10.9

Entry to check: CC(C)N(C=C(C#N)C#N)C(C)C 4.6

Entry to check: CCCCCCCCCCCCCCCCCC(=O)NCCCNCCCNC(=O)CCCCCCCCCCCCCCCCC -13.6

Entry to check: C[C@H](CCC(=O)O)[C@H]1CC[C@H]2[C@@H]3CC[C@@H]4C[C@H](O)CC[C@]4(C)[C@H]3CC[C@]12C 23.6

Entry to check: Cc1nc(-n2nc(-c3ccccc3)cc2-c2ccccc2)sc1C(/C=C/c1ccc([N+](=O)[O-])cc1)=N/NC(N)=S 33.7

Entry to check: COC1/C=C\OC2(C)Oc3c(C)c(O)c4c(O)c(c5[nH]cnc5c4c3C2=O)NC(=O)/C(C)=C\C=C\C(C)C(O)C(C)C(O)C(C)C(OC(C)=O)C1C (configuration not stated) 21.4

Entry to check: CCn1c(S)c(N=NC(=S)c2ccc3ccccc3n2)c2ccccc21 11.5

Entry to check: Nc1ccc(O)cc1 14.9

Entry to check: O=C1c2cc(Br)ccc2-c2ccc(Br)c3cccc1c23 -20.3
